Value source: patent US6683055B1

Molecular target: C1s from human plasma, activated, two-chain form (Homo sapiens, UniProt P09871)
Sequence (P09871 16-437 partner limits assumed): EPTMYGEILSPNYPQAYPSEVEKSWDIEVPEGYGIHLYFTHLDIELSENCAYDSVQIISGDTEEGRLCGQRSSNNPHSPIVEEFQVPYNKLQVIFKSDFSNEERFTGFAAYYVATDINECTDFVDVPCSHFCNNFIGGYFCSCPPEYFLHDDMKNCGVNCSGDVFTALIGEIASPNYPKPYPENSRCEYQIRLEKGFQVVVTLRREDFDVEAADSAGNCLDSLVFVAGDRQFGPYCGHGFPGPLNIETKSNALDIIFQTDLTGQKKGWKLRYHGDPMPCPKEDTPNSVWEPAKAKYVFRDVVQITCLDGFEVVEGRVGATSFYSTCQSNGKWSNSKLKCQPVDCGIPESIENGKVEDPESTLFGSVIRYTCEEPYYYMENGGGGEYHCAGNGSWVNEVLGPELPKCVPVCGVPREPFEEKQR
Sequence (P09871 438-688 limits assumed): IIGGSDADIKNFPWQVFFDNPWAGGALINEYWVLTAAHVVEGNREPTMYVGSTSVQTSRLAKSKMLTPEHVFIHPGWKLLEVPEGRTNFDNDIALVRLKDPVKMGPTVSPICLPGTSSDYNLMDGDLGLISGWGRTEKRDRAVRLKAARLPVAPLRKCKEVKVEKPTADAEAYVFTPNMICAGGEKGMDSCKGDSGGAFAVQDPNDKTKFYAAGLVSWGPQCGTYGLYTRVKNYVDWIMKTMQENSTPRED
Experiment: Color substrate test for C1s inhibition (Example B)
Conditions: amidolytic C1s activity, substrate Cbz-Gly-Arg-S-Bzl; read-out: C1S IC50 according to Example B
Where a name gives a salt, the structure may show the parent alone.
attribute measured: IC50 (µM)
Respond with the bare value in µM.

molecule	study system	IC50 [µM]
CCOC(=O)CCCCCN[C@@H](C(=O)N1CCC[C@H]1C(=O)NCc1ccc(C(=N)N)nc1)C1CCCCC1	C1s from human plasma, activated, two-chain form (Homo sapiens, UniProt P09871)	6
N=C(N)c1csc(CNC(=O)C2SCCN2C(=O)[C@@H](CC2CCCCC2)NCC(=O)O)c1 (stereo partly shown)	C1s from human plasma, activated, two-chain form (Homo sapiens, UniProt P09871)	20
N=C(N)c1coc(CNC(=O)[C@@H]2CCCN2C(=O)[C@@H](CC2CCCCC2)NCC(=O)O)c1	C1s from human plasma, activated, two-chain form (Homo sapiens, UniProt P09871)	20
N=C(N)c1ccc(CNC(=O)[C@@H]2CCCN2C(=O)CNC(=O)CCc2ccccc2)cc1	C1s from human plasma, activated, two-chain form (Homo sapiens, UniProt P09871)	6
Cc1c(C(=N)N)csc1CNC(=O)[C@@H]1C=CCN1C(=O)[C@H](NCC(=O)O)C1CCCCC1	C1s from human plasma, activated, two-chain form (Homo sapiens, UniProt P09871)	3

Item `N=C(N)c1ccc(CNC(=O)[C@@H]2CCCN2C(=O)[C@H](NS(=O)(=O)CC(=O)O)C2CCCCC2)cn1` was tested on C1s from human plasma, activated, two-chain form (Homo sapiens, UniProt P09871); the reported IC50 is 20

Item `CC(C)(C)OC(=O)Nc1ccc(CS(=O)(=O)N[C@@H](C(=O)N2CC=C[C@H]2C(=O)NCc2ccc(C(=N)N)nc2)C2CCCCC2)cc1` was tested on C1s from human plasma, activated, two-chain form (Homo sapiens, UniProt P09871); the reported IC50 is 0.6

Item `CS(=O)(=O)N[C@H](CC1CCCCC1)C(=O)N1CC=C[C@H]1C(=O)NCc1ccc(C(=N)N)nc1` was tested on C1s from human plasma, activated, two-chain form (Homo sapiens, UniProt P09871); the reported IC50 is 10

Item N=C(N)c1ccc(CNC(=O)[C@@H]2C=CCN2C(=O)C(CCC2CCCCC2)NCC(=O)O)cn1 (stereo partly shown) was tested on C1s from human plasma, activated, two-chain form (Homo sapiens, UniProt P09871); the reported IC50 is 30

Item `CS(=O)(=O)N[C@@H](C(=O)N1CCC[C@H]1C(=O)NCc1ccc(C(=N)N)nc1)C1CCCCC1` was tested on C1s from human plasma, activated, two-chain form (Homo sapiens, UniProt P09871); the reported IC50 is 20

Item `CCCCCCCCS(=O)(=O)N[C@H](Cc1ccccc1)C(=O)N1CCC[C@H]1C(=O)NCc1ccc(C(=N)N)cc1` was tested on C1s from human plasma, activated, two-chain form (Homo sapiens, UniProt P09871); the reported IC50 is 20

Item `N=C(N)c1ccc(CNC(=O)[C@@H]2CCCN2C(=O)[C@H]2Cc3ccccc3CN2)cc1` was tested on C1s from human plasma, activated, two-chain form (Homo sapiens, UniProt P09871); the reported IC50 is 30

Item CC1CCN[C@@H](C(=O)N2CCC[C@H]2C(=O)NCc2ccc(C(=N)N)cc2)C1 (stereo partly shown) was tested on C1s from human plasma, activated, two-chain form (Homo sapiens, UniProt P09871); the reported IC50 is 20

Item `N=C(N)c1ccc(CNC(=O)[C@@H]2CCCN2C(=O)CNC(=O)CCCc2ccccc2)cc1` was tested on C1s from human plasma, activated, two-chain form (Homo sapiens, UniProt P09871); the reported IC50 is 20

Item `N=C(N)c1ccc(CNC(=O)[C@@H]2C=CCN2C(=O)[C@H](NCC(=O)O)C2CCCCC2)s1` was tested on C1s from human plasma, activated, two-chain form (Homo sapiens, UniProt P09871); the reported IC50 is 0.6

Item `CC(C)(C)OC(=O)N[C@H](CC(=O)OCc1ccccc1)C(=O)N1CCC[C@H]1C(=O)NCc1ccc(C(=N)N)cc1` was tested on C1s from human plasma, activated, two-chain form (Homo sapiens, UniProt P09871); the reported IC50 is 6

Item N=C(N)Nc1ncc(CNC(=O)[C@@H]2C=CCN2C(=O)[C@@H](CC2CCCCC2)NCC(=O)O)s1 [Example 54, Bishydrochloride] was tested on C1s from human plasma, activated, two-chain form (Homo sapiens, UniProt P09871); the reported IC50 is 8

Item `N=C(N)c1csc(CNC(=O)[C@@H]2CCN2C(=O)[C@H](NCC(=O)O)C2CCCCC2)c1` was tested on C1s from human plasma, activated, two-chain form (Homo sapiens, UniProt P09871); the reported IC50 is 10

Item N=C(N)c1csc(CNC(=O)[C@@H]2CC3CCCCC3N2C(=O)[C@@H](CC2CCCCC2)NCC(=O)O)c1 (stereo partly shown) was tested on C1s from human plasma, activated, two-chain form (Homo sapiens, UniProt P09871); the reported IC50 is 50
